The origin of these recorded values is patent US11098040B2.

Test system: Panc 02.03
assayComment: Cell proliferation assay, pancreatic cancer cell line Panc 02.03
Assay type: cell-based
conditionParameters: Homo sapiens
Catalogue of molecules with associated IC50
Answer format: numeric, nM implied, no suffix.

// known answers, use as guide
[
  {
    "compoundSmiles": "COc1ccc2[nH]c3c(c2c1)C[C@H](C)N(C(=O)CCl)[C@H]3c1ccc(N2CCOCC2)cc1",
    "IC50, nM": 689
  },
  {
    "compoundSmiles": "CCCC[C@H]1Cc2c([nH]c3ccccc23)[C@H](c2ccc(N3CCOCC3)cc2)N1C(=O)CCl",
    "IC50, nM": 64.1
  },
  {
    "compoundSmiles": "CC[C@H]1Cc2c([nH]c3ccccc23)[C@H](c2ccc(N3CCOCC3)cc2)N1C(=O)CCl",
    "IC50, nM": 148
  },
  {
    "compoundSmiles": "CCC[C@H]1Cc2c([nH]c3ccccc23)[C@H](c2ccc(N3CCOCC3)cc2)N1C(=O)CCl",
    "IC50, nM": 48.9
  }
]

Please find the next molecule below.
Problem: Returns the measured IC50 for the input molecule. Input: "C[C@H]1Cc2c([nH]c3ccccc23)[C@H](c2ccc(N3CCC3)cc2)N1C(=O)CCl"
Result: 394
